All figures here come from patent US12263248B2.

Assay: Particle size and polydispersity index of nanoparticle compositions (Zetasizer Nano ZS)
Assay type: physicochemical
Details: Table 1A; lipid:DSPC:cholesterol:PEG-DMG 50:10:38.5:1.5 mol %
Mark FALSE for Size (nm) values under 100 nm, and TRUE for everything at or above.

Illustrative cases are given below, each with its answer.
CCCCCCCCC(CCCCCCCC)OC(=O)CCCCCCCN(CCO)CCCC(=O)OCCCCC    TRUE
CCCCCCCCCOC(=O)CCCCCCCN(CCO)CCCCCCCC(=O)OC(C)CCCCCCCC (stereo not drawn)    TRUE
CCCCCC/C=C\COC(=O)CCCCCCCN(CCO)CCCCCCCC(=O)OC/C=C\CCCCCC    TRUE
CCCCCCCCCOC(=O)C(C)CCCCCCN(CCO)CCCCCCCOC(=O)C(CCCCCCCC)CCCCCCCC (stereo not drawn)    FALSE
CCCCCCCCCOC(=O)CCCCCCCN(CCCCCCCC(=O)OC(CCCCCCCC)CCCCCCCC)CCCNC(=S)N(C)C    TRUE

Query :: Is it the case that CCCCCCCCCOC(=O)CCCCCCCN(CCO)CCCCCCCC(=O)OC(C)(C)C has Size (nm) reaching or exceeding 100 nm?
Result :: TRUE

Query :: Kindly determine if Size (nm) recorded for CCCCCCCCCOC(=O)CCCCCCCN(CCCCCCCC(=O)OC(CCCCCCCC)CCCCCCCC)CCOCCN(C)C is above or exactly 100 nm.
Result :: FALSE

Query :: For this compound, is measured Size (nm) 100 nm or higher? CCCCCCCCCCCOC(=O)CCCCCN(CCO)CCCCCCCC(=O)N(CCCCCCCC)CCCCCCCC
Result :: FALSE

Query :: Record CCCCCCCCCOC(=O)CCCCCCCN(CCO)CCCCCCCC(=O)OC(CC)CC ; criterion: Size (nm) no lower than 100 nm. Met?
Result :: TRUE

Query :: Size (nm) >= 100 nm for CCCCCCCCCOC(=O)CCCCCCCN(CCCCCCCC(=O)OC(CCCCCCCC)CCCCCCCC)Cc1ccccc1 ?
Result :: FALSE

Query :: // inclusive: Size (nm) at least 100 nm? input: CCCCCCCCCOC(=O)CCCCCCCN(CCO)CCCCCCCCCC(CCCCCCCC)CCCCCCCC
Result :: FALSE

Query :: Dear colleague, could you confirm whether CCCCCCCCCOC(=O)CCCCCCCN(CCCCCCCC(=O)OC(CCCCCCCC)CCCCCCCC)CCOCCO has Size (nm) at or above 100 nm?
Result :: FALSE

Query :: Does CCCCCCCCCOC(=O)CCCCCCCN(CCCCCCCC(=O)OC(CCCCCCCC)CCCCCCCC)CCCn1ccnn1 have a reported Size (nm) of at least 100 nm?
Result :: FALSE

====

# Cytokine induction IP-10 annotations
Test system: IL-6, IP-10
Assay: Cytokine induction in mice upon intravenous administration
Assay type: in vivo
Design: unit not given here
Details: intravenous, 0.5 mpk, 6 hours

A selection of reference data follows.
CCCCCCCCCOC(=O)CCCCCCCN(CCCCCCCC(=O)OC(CCCCCCCC)CCCCCCCC)CCCOC    206.75
CCCCCCCCC(CCCCCCCC)OC(=O)CCCCCCCN(CCO)CCCCCCCC(=O)OCC1CC1CCCCCC (stereo not shown)    283.13
CCCCCCCCCOC(=O)CCCCCCCN(CCCCCCCC(=O)OC(CCCCCCCC)CCCCCCCC)CC(O)CC (stereo not shown)    126.29
CCCCCC/C=C\COC(=O)CCCCCCCN(CCO)CCCCCCCC(=O)OC(CCCCCCCC)CCCCCCCC    1172.93
CCCCCCCCCOC(=O)CCCCCCCN(CCCCCCCC(=O)OC(CCCCCCCC)CCCCCCCC)C[C@H](C)O    32.03

Query :: Quick one: give measured Cytokine induction IP-10 for CCCCCCCCCN(CCCO)CCCCCCCC(=O)OC(CCCCCCCC)CCCCCCCC
Result :: 4959.16

Query :: Item CCCCCCCCCOC(=O)CCCCCCCN(CCCCCCCC(=O)OC(CCCCCCCC)CCCCCCCC)CCOC(C)=O : provide Cytokine induction IP-10
Result :: 366.53

Query :: For the molecule CCCCCCCCCCCCCCN(CCO)CCCCCCCC(=O)OC(CCCCCCCC)CCCCCCCC , give its measured Cytokine induction IP-10 value.
Result :: 468.86

Query :: Write down Cytokine induction IP-10 measured for item CCCCCC/C=C\COC(=O)CCCCCCCN(CCO)CCCCCCCC(=O)OC/C=C\CCCCCC
Result :: 153.36

Query :: Give Cytokine induction IP-10 for CCCCCCCCCOC(=O)CCCCCCCN(CCO)CCCCCCCC(=O)OCCCCCCCCC
Result :: 172.56
